These data points were gathered from the supplement of paper PMC9112550.

- Tested on: Escherichia coli TOP10
- METHOD_DESCRIPTION: shrunken log2 fold change of peptide-encoding DNA abundance (4.5 h post-induction vs induction); higher = less antimicrobial activity (less host growth inhibition)
- CONDITION_NOTES: time post-induction: 4.5 h; library: site-saturation at positions 5, 18, 19, 20
Field: shrunken log2 fold change. Provide a value for each of the sequences that follow.

# get_value(readout= shrunken log2 fold change, system= Escherichia coli TOP10) for `RRIRVRPPRLPRPRPRPHPLPRP`
-0.435

# get_value(readout= shrunken log2 fold change, system= Escherichia coli TOP10) for `RRIRRRPPRLPRPRPRPRCDPRP`
0.306

# get_value(readout= shrunken log2 fold change, system= Escherichia coli TOP10) for `RRIRERPPRLPRPRPRPVPVPRP`
0.0913

# get_value(readout= shrunken log2 fold change, system= Escherichia coli TOP10) for `RRIRHRPPRLPRPRPRPMLTPRP`
0.0372

# get_value(readout= shrunken log2 fold change, system= Escherichia coli TOP10) for `RRIRWRPPRLPRPRPRPLNRPRP`
-0.274

# get_value(readout= shrunken log2 fold change, system= Escherichia coli TOP10) for `RRIRQRPPRLPRPRPRPINLPRP`
-0.123

# get_value(readout= shrunken log2 fold change, system= Escherichia coli TOP10) for `RRIRIRPPRLPRPRPRPCWIPRP`
-0.222

# get_value(readout= shrunken log2 fold change, system= Escherichia coli TOP10) for `RRIRVRPPRLPRPRPRPPQVPRP`;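 further: peptides expressed intracellularly from a pBAD plasmid library in pooled LB shake-flask culture, induced with 0.3% L-arabinose, DNA abundance read by NGS, three biological replicates, DESeq2 with apeglm shrinkage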
0.377
